Each entry below carries its reported Receptor downregulation, (EC50) (pM).
- testedTarget: human Siglec-7 on primary human monocyte-derived dendritic cells (human, UniProt Q9Y286 19-467)
- Sequence (Q9Y286 19-467): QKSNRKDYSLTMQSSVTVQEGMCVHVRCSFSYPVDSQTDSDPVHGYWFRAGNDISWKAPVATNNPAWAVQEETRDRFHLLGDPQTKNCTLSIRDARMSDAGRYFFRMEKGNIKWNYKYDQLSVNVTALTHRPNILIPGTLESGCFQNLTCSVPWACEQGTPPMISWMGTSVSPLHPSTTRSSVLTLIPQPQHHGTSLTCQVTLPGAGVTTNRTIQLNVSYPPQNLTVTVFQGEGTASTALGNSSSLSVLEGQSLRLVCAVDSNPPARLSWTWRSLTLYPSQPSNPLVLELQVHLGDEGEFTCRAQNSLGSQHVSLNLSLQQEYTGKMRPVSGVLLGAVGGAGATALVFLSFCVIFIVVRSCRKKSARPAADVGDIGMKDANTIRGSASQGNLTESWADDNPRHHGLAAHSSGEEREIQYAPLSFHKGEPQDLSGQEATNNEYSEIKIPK
- protocol: cell-based or functional assay
attributeMeasured: Receptor downregulation, (EC50) (pM)

binder | assayResult
S7AB-H8.45.2 (antibody, V domains shown) VH: QVQLVQSGAEVKKPGASVKVSCKASGYAFTEAWMNWVRQARGQRLEWIGRIFPGYGHTNYAQKFQGRATLTEDTSTSTAYMELSSLRSEDTAVYYCARDYSDYYFDYWGQGTLVTVSS VL: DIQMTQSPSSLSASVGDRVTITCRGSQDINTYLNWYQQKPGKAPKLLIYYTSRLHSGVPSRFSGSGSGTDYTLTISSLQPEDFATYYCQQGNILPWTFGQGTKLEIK | 109
S7AB-H8.27 (antibody, V domains shown) VH: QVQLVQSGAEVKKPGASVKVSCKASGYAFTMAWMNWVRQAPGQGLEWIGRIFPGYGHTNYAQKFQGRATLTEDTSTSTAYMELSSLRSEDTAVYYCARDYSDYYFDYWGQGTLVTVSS VL: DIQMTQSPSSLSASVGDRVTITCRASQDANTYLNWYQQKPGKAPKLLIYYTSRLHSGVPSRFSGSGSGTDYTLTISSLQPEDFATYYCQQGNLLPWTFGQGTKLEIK | 93.7
S7AB-H8.32 (antibody, V domains shown) VH: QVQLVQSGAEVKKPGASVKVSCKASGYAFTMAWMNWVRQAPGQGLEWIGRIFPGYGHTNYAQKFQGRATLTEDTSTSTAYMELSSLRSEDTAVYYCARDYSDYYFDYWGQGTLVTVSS VL: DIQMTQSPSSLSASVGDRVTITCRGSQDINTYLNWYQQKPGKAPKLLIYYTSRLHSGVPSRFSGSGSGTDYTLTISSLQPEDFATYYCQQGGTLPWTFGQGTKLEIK | 91.3
S7AB-H8.24 (antibody, V domains shown) VH: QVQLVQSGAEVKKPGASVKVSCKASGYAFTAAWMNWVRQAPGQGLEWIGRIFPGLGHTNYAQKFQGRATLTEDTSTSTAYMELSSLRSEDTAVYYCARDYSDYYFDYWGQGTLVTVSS VL: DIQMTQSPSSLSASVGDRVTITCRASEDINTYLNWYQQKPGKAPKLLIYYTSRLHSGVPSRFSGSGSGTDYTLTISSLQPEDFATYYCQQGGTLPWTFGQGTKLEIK | 129
S7AB-H8.13 (antibody, V domains shown) VH: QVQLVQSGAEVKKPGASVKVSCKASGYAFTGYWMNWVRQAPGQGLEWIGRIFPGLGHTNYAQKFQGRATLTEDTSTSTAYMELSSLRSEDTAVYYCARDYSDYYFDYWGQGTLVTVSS VL: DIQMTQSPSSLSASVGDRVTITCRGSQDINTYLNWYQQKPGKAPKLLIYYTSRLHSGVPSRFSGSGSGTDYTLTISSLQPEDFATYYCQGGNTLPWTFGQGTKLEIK | 2270
S7AB-H8.20 (antibody, V domains shown) VH: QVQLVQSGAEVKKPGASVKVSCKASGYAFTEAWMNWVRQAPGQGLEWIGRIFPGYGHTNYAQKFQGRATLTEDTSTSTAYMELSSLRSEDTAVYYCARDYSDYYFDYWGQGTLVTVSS VL: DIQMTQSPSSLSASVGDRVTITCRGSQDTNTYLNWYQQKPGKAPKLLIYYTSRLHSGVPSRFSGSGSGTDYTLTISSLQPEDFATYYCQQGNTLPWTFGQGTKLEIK | 245
S7AB-H8.10.2 (antibody, V domains shown) VH: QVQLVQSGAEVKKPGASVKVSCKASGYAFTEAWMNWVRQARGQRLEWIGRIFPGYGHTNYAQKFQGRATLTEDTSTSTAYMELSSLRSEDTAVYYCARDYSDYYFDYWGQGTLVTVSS VL: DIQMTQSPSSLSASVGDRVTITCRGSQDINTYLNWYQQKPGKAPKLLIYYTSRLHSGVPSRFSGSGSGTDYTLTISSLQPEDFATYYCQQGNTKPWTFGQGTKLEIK | 169
S7AB-H8.12 (antibody, V domains shown) VH: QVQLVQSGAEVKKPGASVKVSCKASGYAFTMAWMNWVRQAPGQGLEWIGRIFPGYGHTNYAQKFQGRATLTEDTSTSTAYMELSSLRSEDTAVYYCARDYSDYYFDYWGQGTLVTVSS VL: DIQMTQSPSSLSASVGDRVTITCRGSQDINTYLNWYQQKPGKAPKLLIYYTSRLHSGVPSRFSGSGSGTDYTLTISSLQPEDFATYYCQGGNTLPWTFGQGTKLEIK | 25400
S7AB-H8.23 (antibody, V domains shown) VH: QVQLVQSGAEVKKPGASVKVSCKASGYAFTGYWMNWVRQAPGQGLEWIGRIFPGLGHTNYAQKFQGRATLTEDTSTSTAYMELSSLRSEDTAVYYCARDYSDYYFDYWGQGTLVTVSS VL: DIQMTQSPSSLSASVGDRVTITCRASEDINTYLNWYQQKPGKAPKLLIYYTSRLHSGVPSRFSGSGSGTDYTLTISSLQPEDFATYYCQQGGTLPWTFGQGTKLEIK | 90.1
S7AB-H8.29 (antibody, V domains shown) VH: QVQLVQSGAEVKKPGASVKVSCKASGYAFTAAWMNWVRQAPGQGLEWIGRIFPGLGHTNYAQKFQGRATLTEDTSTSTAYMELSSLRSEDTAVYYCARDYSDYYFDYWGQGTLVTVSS VL: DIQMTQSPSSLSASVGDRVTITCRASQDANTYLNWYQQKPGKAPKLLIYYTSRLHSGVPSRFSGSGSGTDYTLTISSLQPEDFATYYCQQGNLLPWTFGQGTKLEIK | 51.1
